# System: UACC-62 melanoma
# protocol notes: NCI tumour cell line growth inhibition, 48 h
Assign TGI to each entry below.

Param item = O=C(Nc1ccncc1)C(=O)c1cn(S(=O)(=O)c2ccccc2F)c2ccccc12 ; retrieve measured TGI.
> 36.4 µM

And Cc1ccc(C2=Nc3ccccc3NC(=O)C2)cc1 ?
> 100 µM

And CCOC(=O)/C=C/[C@H](O[Si](c1ccccc1)(c1ccccc1)c1ccccc1)C(C)(C)C ?
> 31.6 µM

And OCCCN(CCc1ccc(Cl)c(Cl)c1)CCN1CCCC1 ?
31.5 µM

And CNS(=O)(=O)NN(C)S(=O)(=O)c1ccc(Br)cc1 ?
> 100 µM

And COc1ccc(C(=O)c2cc(OC)c(OC)c(OC)c2)cc1O ?
> 100 µM

And Clc1cc(Cl)cc(N2N=C(c3cccc(Nc4ccncc4)c3)CC2c2ccc(Br)cc2)c1 (configuration not stated) ?
3.13 µM

And CNC1NC(=O)c2ccccc2N1Cc1ccc(F)cc1 (configuration not stated) ?
> 100 µM

And Cc1nc(Nc2ccc(F)c(Cl)c2)sc1C(=O)O ?
2.62 µM

And c1cncc(CNc2ccccc2-c2nnc(Nc3ccc4c(c3)OCCO4)o2)c1 ?
> 100 µM

And CN(C)CCNC(=O)c1cc([N+](=O)[O-])ccn1 ?
42.3 µM

And CN(/N=N/c1nc(OCc2ccccc2)c2[nH]cnc2n1)C(=O)N(C)/N=N/c1nc(OCc2ccccc2)c2[nH]cnc2n1 ?
> 100 µM

And O=C(c1ccco1)N1CCN(C(=O)c2ccco2)C1=S ?
19.1 µM

And O=C(NCCCCNCCCNC(=O)C(F)(F)F)C(F)(F)F ?
> 100 µM

And COC(=O)CC1(O)C(C=C(C)C)C(C(=O)OC)C(=O)C(C(=O)OC)C1C(=O)OC (configuration not stated) ?
> 100 µM

And CCOC(=O)c1c(NC(=O)c2ccccc2)sc2c1CCC2 ?
> 100 µM

And C=C(CN1CCN(c2ccccc2F)CC1)c1ccc(C(=O)Nc2ccccc2N)cc1 ?
18.3 µM

And CC1C=C(NCC2(CO)CCC2)NC(N)=N1 (configuration not stated) ?
> 100 µM

And CC(C)(C)OC(=O)/C=C/C(=O)O/C=C/[N+](=O)[O-] ?
> 100 µM

And Cc1ccc(S(=O)(=O)OCC23CCC(C4CC42)C2CC23)cc1 (configuration not stated) ?
> 100 µM

And C#CCSc1cnc2ccccc2c1Sc1c[nH]c2ccccc2c1=O ?
54.1 µM

And CCc1nc2ccc(Cc3ccc(C(=O)NO)cc3)cc2c(=O)n1CCc1ccccc1 ?
2.64 µM

====

# System: UACC-257 melanoma
# protocol notes: NCI tumour cell line growth inhibition, 48 h
property: TGI (µM)
Please respond with the number in µM and leave the unit unwritten.

Fill in the recorded TGI for this compound, with UACC-257 melanoma as test system: O=C1C(Cl)=C(N2CCOCC2)C(=O)c2ccccc21
3.03

And CN(C)CCNC(=O)c1cc([N+](=O)[O-])ccn1 ?
29.8

And Cc1ccc(S(=O)(=O)OCC23CCC(C4CC42)C2CC23)cc1 (centres undefined) ?
89.1

====

Assign TGI to each entry below.
# Test system: OVCAR-4 ovarian
# protocol notes: NCI tumour cell line growth inhibition, 48 h

Param item = CC(=O)O[C@@H]1CC(C)C2CC2C2=C(C(O)OC2O)[C@@H]1C(C)CCC=C(C)C (stereo not given in full) ; retrieve measured TGI.
71.2 µM

And CCN(CC)C(=S)N/N=C(\C)c1ccccc1O ?
> 100 µM

And C#CCSc1cnc2ccccc2c1Sc1c[nH]c2ccccc2c1=O ?
> 100 µM

And Cc1cc2nc3c(C(O)CO)nn(-c4ccccc4)c3nc2cc1C (stereo not given) ?
53.4 µM

And CCCCCC(/C=N/NC(N)=S)C(O)(C(F)(F)F)C(F)(F)F (stereo not given) ?
> 10 µM

And Cc1ccc(NS(=O)(=O)c2cc(C)ccc2C)cc1 ?
> 100 µM

And Cc1ccc(N2C(=O)CC(=O)N(NC(=O)C(C)Oc3ccccc3C)C2=S)cc1 (stereo not given) ?
> 100 µM

And O=[N+]([O-])c1cccc2nc3ccccc3c(NCCNCCO)c12 ?
0.0162 µM

And O=C(Nc1ccc(Nc2ccncc2)cc1)c1ccc(Nc2ccnc3ccc([N+](=O)[O-])cc23)cc1 ?
> 100 µM

And O=C(c1ccc(NCN2C(=O)CCC2=O)cc1)c1ccc(NCN2C(=O)CCC2=O)cc1 ?
> 100 µM

====

# System: SR leukemia
# protocol notes: NCI tumour cell line growth inhibition, 48 h
property: TGI

Param item = CCc1ccc(CCC(=O)Nc2ncc(Cc3ccccc3)s2)o1 ; retrieve measured TGI.
> 100 µM

And CN1CCN(Cc2ccc(NC(=O)c3[nH]ncc3Nc3ncnc4c3CCC4)cc2)CC1 ?
3.05 µM

And Cc1cc2c(C(N)=O)cccc2n1-c1nc2c(c(NCc3ccccc3)n1)CCCN2 ?
0.525 µM

And CO/N=C1/NC(=O)/C(=C/c2ccc3ncccc3c2)S1 ?
> 25 µM

And C/C=C/OC1C(C2COC(C)(C)O2)OC2OC(C)(C)OC21 (stereo not given) ?
> 100 µM

And COc1cccc(NC(=O)N/C(=C/c2ccc(N(CCC#N)CCC#N)cc2)NC(=O)c2cc([N+](=O)[O-])ccc2Cl)c1 ?
> 100 µM

And OCC1CCCCN1Cc1nc2ccc(Cl)cc2[nH]1 (stereo not given) ?
> 100 µM

And Cc1c(Cl)cccc1NC(=O)c1sc2nc3c(cc2c1N)CCCCCC3 ?
> 50 µM

And COc1ccc(C(=O)c2cc(OC)c(OC)c(OC)c2)cc1O ?
> 100 µM

And Cc1nn2c(/C=C3/C(=O)Nc4ccc(Cl)cc43)c(-c3ccccc3)nc2s1 ?
> 100 µM

====

# Tested on: ACHN renal
# protocol notes: NCI tumour cell line growth inhibition, 48 h
property: GI50

Fill in the recorded GI50 for this compound, with ACHN renal as test system: COc1cc(-c2cn(-c3ccc(Cl)cc3)c(=O)[nH]2)cc(OC)c1OC
> 100000 nM

And C#CC[C@H](c1nc2cc(Cl)ccc2c(=O)n1Nc1ccccc1)N(CCCN)C(=O)c1cccc(Cl)c1F ?
1730 nM

And O=[N+]([O-])c1cc(Br)cc2c1[nH]c1ccc(Br)cc12 ?
3310 nM

And COc1cccc(/C=C/C(=O)c2cc3c(N)c(C(=O)Nc4cccc(Cl)c4C)sc3nc2C)c1 ?
811 nM

====

Assign GI50 to each entry below.
# System: OVCAR-5 ovarian
# protocol notes: NCI tumour cell line growth inhibition, 48 h

Param item = Cc1ccc(C(=O)N/N=C/c2cccc(Oc3ccccc3)c2)cn1 ; retrieve measured GI50.
> 100 µM

And Clc1cc(Cl)cc(N2N=C(c3cccc(Nc4ccncc4)c3)CC2c2ccc(Br)cc2)c1 (stereo not given) ?
1.55 µM

And Cc1nn2c(/C=C3/C(=O)Nc4ccc(Cl)cc43)c(-c3ccccc3)nc2s1 ?
8.38 µM

And Cc1nc(Nc2ccc(F)c(Cl)c2)sc1C(=O)O ?
1.7 µM

And O=C(CNC(=O)c1cccc2ccccc12)Nc1ccccc1Oc1ccccc1 ?
0.521 µM

And CCCCC(=O)[O-].N.N.N.N.N.[Co+3].[O-][Cl+3]([O-])([O-])[O-] ?
> 100 µM

And COc1cccc(/C=C/C(=O)c2cc3c(N)c(C(=O)Nc4cccc(Cl)c4C)sc3nc2C)c1 ?
1.22 µM

And Cc1ccc(NC2=C(Sc3ccc(Cl)cc3)C(=O)N(Cc3ccccc3)C2=O)cc1Cl ?
10.5 µM

And Nc1ncc(-c2ccc(C(F)(F)F)cc2)c(NC2CCCCCC2)n1 ?
45.6 µM

And O=C1C(Cl)=C(N2CCOCC2)C(=O)c2ccccc21 ?
20.7 µM

And Cc1cc(S(=O)(=O)NC#N)c(S/C(=N\Nc2ccc([N+](=O)[O-])cc2)c2ccccc2)cc1Cl ?
15.7 µM

And N#CSCC1CC(O)(c2ccccc2)C(c2ccccc2)C(c2ccc(F)cc2)O1 (stereo not given) ?
7.24 µM

And Cc1c(Cl)cccc1NC(=O)c1sc2nc3c(cc2c1N)CCCCCC3 ?
0.791 µM

And CO/N=C1/NC(=O)/C(=C/c2ccc3ncccc3c2)S1 ?
6.16 µM

And CCc1ccc(CCC(=O)Nc2ncc(Cc3ccccc3)s2)o1 ?
3.93 µM

====

# System: MCF7 breast
# protocol notes: NCI tumour cell line growth inhibition, 48 h
Assign TGI to each entry below.

Param item = O=C(c1ccco1)N1CCN(C(=O)c2ccco2)C1=S ; retrieve measured TGI.
11 µM

And Cc1cc(S(=O)(=O)NC#N)c(S/C(=N\Nc2ccc([N+](=O)[O-])cc2)c2ccccc2)cc1Cl ?
28.3 µM

And COc1ccc(S(=O)Cc2cc(OC)ccc2OC)cc1 (stereo unspecified) ?
> 100 µM

And C=C(CN1CCN(c2ccccc2F)CC1)c1ccc(C(=O)Nc2ccccc2N)cc1 ?
> 100 µM

And Cc1cc(-c2nc3ccc(O)cc3s2)ccc1N ?
> 100 µM

And O=c1[nH]nc2c3c(cccc13)NC(CN1Cc3ccccc3C1)=N2 ?
> 100 µM
